Some molecules, each annotated with its measured CC50.
Assay: CC50 cytotoxicity assay
Assay type: cell-based, African green monkey
Settings: African green monkey, VERO C1008 cells (African green monkey kidney cells); concentration at which 50 % of VERO cells are killed; read-out: CC50
Method: The assay was run in replicates in each of the two independent experiments. Data were transferred to a graphic program (MS Excel) and IC50 and CC50 were calculated by linear interpolation between the two concentrations above and below 50 % inhibition.
METRIC_NAME: CC50 (µg/mL)

>>> df
                                   molecule  assay_result
0  C=C1CCC2C(C)(C)CCC[C@@]2(C)C1CC/C(C)=C/C(=O)O (some centres unmarked)           180
1  C=C1CCC2C(C)(C)C(OC(C)=O)CC[C@@]2(C)C1CC/C(C)=C/C(=O)O (some centres unmarked)           697

---

Test system: Brugia malayi microfilariae (Mf)
Assay: In vitro motility assay on microfilariae
Assay type: cell-based
Details: Brugia malayi; reference drugs, values in μM; read-out: IC50 for Mf in MA
Method: Microfilariae and adult worms were harvested from p.c. of the M. unguiculatus harbouring approximately 5–6 month-old B. malayi infection. […] In vitro efficacy of the test agents and reference drugs was assessed on mf (40–50 mf/100 μl/well) in a 96-well cell culture plate (Nunc, Denmark) and on adult female worms (1 worm/ml/well) in a 48-well plate (Nunc, Denmark). […] IC50 and CC50 of the test agents were determined using the method described elsewhere. […]
METRIC_NAME: IC50

In [3]: df
Out[3]:
                                   compound  metric_name  assay_result
0  CCN(CC)C(=O)N1CCN(C)CC1 [DEC-C, Diethylcarbamazine-citrate]         IC50        297 µM

---

assay: CC50 cytotoxicity assay; format: cell-based, African green monkey; conditions: African green monkey
METRIC_NAME: CC50

In [3]: df
Out[3]:
                                   compound  metric_name  assay_result
0  CCN(CC)C(=O)N1CCN(C)CC1 [DEC-C, Diethylcarbamazine-citrate]         CC50          9 mM
